Target: FAAH (Rattus norvegicus, UniProt P97612)
Construct: Preparation of Rat Brain Membranes Preparations (FAAH Enzyme Solution); from tissue; host or cells: rat cerebrum (brain membrane preparation)
Sequence (P97612 whole entry): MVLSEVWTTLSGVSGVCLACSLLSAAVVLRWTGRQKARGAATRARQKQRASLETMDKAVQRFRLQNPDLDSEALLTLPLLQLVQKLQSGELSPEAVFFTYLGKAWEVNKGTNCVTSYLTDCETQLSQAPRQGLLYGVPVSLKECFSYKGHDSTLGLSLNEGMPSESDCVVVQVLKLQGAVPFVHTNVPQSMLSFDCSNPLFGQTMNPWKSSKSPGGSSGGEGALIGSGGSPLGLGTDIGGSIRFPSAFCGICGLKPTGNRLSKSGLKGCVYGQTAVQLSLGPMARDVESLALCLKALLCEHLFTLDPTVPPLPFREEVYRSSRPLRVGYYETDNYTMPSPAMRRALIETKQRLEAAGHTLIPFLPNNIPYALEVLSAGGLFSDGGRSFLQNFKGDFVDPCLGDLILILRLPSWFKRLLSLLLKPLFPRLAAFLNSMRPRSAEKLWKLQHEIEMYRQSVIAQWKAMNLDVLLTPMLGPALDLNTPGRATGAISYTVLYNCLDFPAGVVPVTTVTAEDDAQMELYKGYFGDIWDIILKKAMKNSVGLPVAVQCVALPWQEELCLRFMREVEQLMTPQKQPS
Experiment: Determination of FAAH inhibitory activity in rat (rat brain membrane preparations, [3H]-anandamide hydrolysis)
Type: biochemical
Conditions: at 100 nM; rat brain membrane preparations; read-out: FAAH Inhibition Inhibition Rate at 100 nM
Item-by-item account of inhibition at 0.1 µM
measured-parameter: inhibition at 0.1 µM (%)

>>> numeric_readout("CCc1ncc2c(n1)n(C(=O)N1CC(c3cccc(F)c3)C1)c(=O)n2C [Example 635]")
88
>>> numeric_readout("CCCn1c(=O)n(C(=O)N2CC(c3ccccc3)C2)c2cnc(COC)nc21 [Example 658]")
86
>>> numeric_readout("Cn1c(=O)n(C(=O)N2CCC2)c2nc(CCc3ccc4c(c3)CCO4)ncc21 [Example 620]")
87
>>> numeric_readout("Cn1c(=O)n(C(=O)N2CC(c3ccc(F)cc3)C2)c2cnc(C3CC3)nc21 [compound 621]")
78
>>> numeric_readout("CN(C)C(=O)n1c(=O)n(C)c2cnc(CCC3CCCCC3)nc21 [Example 615]")
96
>>> numeric_readout("CCOc1cccc(CCc2ncc3c(n2)n(C(=O)N2CCC2)c(=O)n3C)c1 [compound 604]")
92
>>> numeric_readout("Cn1c(=O)n(C(=O)N2CC(c3cccc(F)c3)C2)c2nc(C3CC3)ncc21 [Example 632]")
84
>>> numeric_readout("CN(C)C(=O)n1c(=O)n(C)c2cnc(CCOc3ccc(Cl)cc3)nc21 [compound 640]")
95
>>> numeric_readout("CCc1ncc2c(n1)n(C)c(=O)n2C(=O)N1CC(c2ccccc2)C1 [compound 627]")
107
>>> numeric_readout("CN(C)C(=O)n1c(=O)n(C)c2cnc(Cc3ccc(Cl)cc3)nc21 [compound 653]")
108
>>> numeric_readout("Cn1c(=O)n(C(=O)N2CCC2)c2nc(CCc3ccc(OCC(F)(F)F)cc3)ncc21 [Example 613]")
95
>>> numeric_readout("Cn1c(=O)n(C(=O)N2CCC2)c2nc(CCCC3CCCCC3)ncc21 [Example 619]")
103
>>> numeric_readout("CCn1c(=O)n(C(=O)N2CCC2)c2nc(CCc3ccc(F)cc3)ncc21 [Example 651]")
100
>>> numeric_readout("CCn1c(=O)n(C(=O)N(C)C)c2nc(CCc3ccc(F)cc3)ncc21 [Example 645]")
98
>>> numeric_readout("CN(C)C(=O)n1c(=O)n(C)c2cnc(Cc3cccc(C(F)(F)F)c3)nc21 [Example 654]")
110
>>> numeric_readout("CCCc1ncc2c(n1)n(C)c(=O)n2C(=O)N1CC(c2cccc(F)c2)C1 [compound 625]")
104
>>> numeric_readout("CN(C)C(=O)n1c(=O)n(C)c2cnc(CCOc3cccc(Cl)c3)nc21 [Example 641]")
105
>>> numeric_readout("CN(C)C(=O)n1c(=O)n(C)c2cnc(CCCC3CCCC3)nc21 [Example 617]")
93
>>> numeric_readout("CCn1c(=O)n(C(=O)N2CC(c3ccccc3)C2)c2cnc(COC)nc21 [Example 655]")
102
>>> numeric_readout("CCn1c(=O)n(C(=O)N(C)C)c2nc(CCc3ccccc3F)ncc21 [Example 643]")
97
>>> numeric_readout("CCCn1c(=O)n(C(=O)N(C)C)c2nc(CCc3ccc(F)cc3)ncc21 [Example 648]")
87
>>> numeric_readout("CN(C)C(=O)n1c(=O)n(C)c2cnc(CCCC3CCCCC3)nc21 [Example 616]")
99
>>> numeric_readout("Cn1c(=O)n(C(=O)N2CCC2)c2nc(CCc3cccc(OCC(F)(F)F)c3)ncc21 [Example 612]")
96
>>> numeric_readout("CCCc1ncc2c(n1)n(C(=O)N1CC(c3cccc(F)c3)C1)c(=O)n2C [Example 633]")
82
>>> numeric_readout("Cn1c(=O)n(C(=O)N2CC(c3ccc(F)cc3)C2)c2nc(C3CC3)ncc21 [Example 630]")
102
>>> numeric_readout("Cn1c(=O)n(C(=O)N2CC(c3ccccc3)C2)c2cnc(C3CC3)nc21 [compound 623]")
87
>>> numeric_readout("CN(C)C(=O)n1c(=O)n(C)c2cnc(CCCCc3ccccc3)nc21 [Example 618]")
101
>>> numeric_readout("CCCn1c(=O)n(C(=O)N2CC(c3ccccc3F)C2)c2cnc(COC)nc21 [Example 661]")
82
>>> numeric_readout("CCCn1c(=O)n(C(=O)N(C)C)c2nc(CCc3cccc(F)c3)ncc21 [Example 647]")
100
>>> numeric_readout("CCCc1ncc2c(n1)n(C(=O)N1CC(c3ccccc3)C1)c(=O)n2C [Example 637]")
102
